Biological target: UniProtKB P33261
Sequence (P33261 whole entry): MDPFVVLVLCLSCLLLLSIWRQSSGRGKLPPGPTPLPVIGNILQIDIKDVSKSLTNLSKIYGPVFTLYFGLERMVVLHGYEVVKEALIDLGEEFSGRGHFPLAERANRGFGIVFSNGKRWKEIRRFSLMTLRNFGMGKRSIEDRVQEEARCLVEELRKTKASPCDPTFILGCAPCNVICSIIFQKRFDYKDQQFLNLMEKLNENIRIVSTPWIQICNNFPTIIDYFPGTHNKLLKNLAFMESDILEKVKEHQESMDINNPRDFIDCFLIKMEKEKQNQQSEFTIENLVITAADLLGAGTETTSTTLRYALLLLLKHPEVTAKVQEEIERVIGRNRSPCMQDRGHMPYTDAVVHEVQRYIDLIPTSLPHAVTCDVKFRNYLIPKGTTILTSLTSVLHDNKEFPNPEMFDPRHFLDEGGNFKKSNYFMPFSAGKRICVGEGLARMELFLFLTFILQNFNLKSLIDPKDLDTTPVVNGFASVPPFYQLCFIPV
Assay: Cytochrome panel assay with activity outcomes. Panel member name: p450-cyp2c19 Compounds with AC50 equal or less than 10 uM are considered active
Type: functional
Conditions: read-out: AC50
assay endpoint: AC50

Before answering, review these 4 worked examples.
molecule	experimental target	AC50
N#Cc1cccc(NC(=O)N2CCCC3(CCN(C(=O)Oc4ccccc4)CC3)C2)c1	UniProtKB P33261	25.1 µM (inconclusive)
O=C(CCN1C(=O)C2C3C=CC(C3)C2C1=O)N1CCN(c2cccc(Cl)c2)CC1 (stereo not given)	UniProtKB P33261	25.1 µM (inconclusive)
COc1ccc2[nH]c3c(NCCCN4CCCC4=O)ncnc3c2c1	UniProtKB P33261	39.8 µM (inconclusive)
Cc1ccccc1NC(S)=NN1CCN(C)CC1	UniProtKB P33261	25.1 µM (inconclusive)

Then this molecule:
Query: Reported AC50, molecule COc1cc(-n2ccnc2SC)c(Cl)cc1Cl : ____
Reply: 7.08 µM (inconclusive)

====

Target: FAD-linked sulfhydryl oxidase ALR (Homo sapiens)
Sequence (P55789 whole entry): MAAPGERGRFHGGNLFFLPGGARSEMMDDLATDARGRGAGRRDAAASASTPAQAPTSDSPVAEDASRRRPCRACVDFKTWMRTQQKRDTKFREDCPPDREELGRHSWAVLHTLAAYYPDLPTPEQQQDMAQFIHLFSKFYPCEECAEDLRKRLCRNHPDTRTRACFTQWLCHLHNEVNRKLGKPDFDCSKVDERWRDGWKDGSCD
Test: inhibitors of human ALR sulfhydryl oxidase, dose response, biochemical, H2O2 detection, luminescence, cherry-pick (AID 493248)
The source made the active and inactive calls.
assay endpoint: AC50

Solved entries (count: 5):
compound	assay endpoint	test result
CN(C)c1ccc(/C=N/NC(=O)CCc2c[nH]c3ccccc23)cc1	AC50	2.11 µM (active)
Cc1nn(-c2ccccc2)c(Cl)c1/C=N/Nc1ccc(Cl)c(C(=O)O)c1	AC50	0.907 µM (active)
CCN(CC)c1ccc(/C=N/NC(=O)Nc2nonc2N)cc1	AC50	1.38 µM (active)
COc1cccc(N2C(=O)CC(N3CCc4ccccc43)C2=O)c1 (stereo unspecified)	AC50	1.21 µM (active)
O=C(CCNc1ccccc1)c1cccc([N+](=O)[O-])c1	AC50	5.58 µM (active)

Query: For the compound shown here, Cc1ccc2[nH]c(-c3cccc(N)c3)nc2c1 , give the reported AC50.
Reply: 0.838 µM (active)

====

# collection of AC50 values tested on Cytochrome P450 2C9 (Homo sapiens)
# Sequence (P11712 whole entry): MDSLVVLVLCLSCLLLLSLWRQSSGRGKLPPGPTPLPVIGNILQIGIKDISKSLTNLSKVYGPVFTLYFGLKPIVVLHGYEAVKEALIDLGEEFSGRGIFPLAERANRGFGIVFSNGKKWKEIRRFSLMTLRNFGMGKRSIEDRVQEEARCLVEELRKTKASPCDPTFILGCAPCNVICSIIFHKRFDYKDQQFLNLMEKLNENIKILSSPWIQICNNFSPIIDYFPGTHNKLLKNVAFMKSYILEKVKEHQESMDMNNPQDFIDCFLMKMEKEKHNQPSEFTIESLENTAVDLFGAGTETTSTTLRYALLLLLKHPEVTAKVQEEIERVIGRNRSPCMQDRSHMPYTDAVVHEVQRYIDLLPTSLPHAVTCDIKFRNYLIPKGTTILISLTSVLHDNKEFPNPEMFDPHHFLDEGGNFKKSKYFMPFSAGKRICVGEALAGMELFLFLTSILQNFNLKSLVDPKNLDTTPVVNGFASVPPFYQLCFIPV

structure	AC50
COC(=O)C[C@@H]1O[C@H]1[C@H](C)[C@@H](OC)C(C)C	3.16 µM (inconclusive)
COc1ccc(OC)c(NC(=O)Cn2cccc2)c1	31.6 µM (inconclusive)
COc1ccc(-c2nc3cnc(N4CCN(C)CC4)nc3n(-c3ccc(OC)cc3)c2=O)cc1	39.8 µM (inconclusive)
C/C(=C\c1ccc(Cl)cc1)C(C)(C)C(=O)O	3.16 µM (inconclusive)
O=C(NNC(=O)c1ccccc1)C(=O)N1CCCCC1	0.00562 µM (inconclusive)

As a next step, examine the compound that follows.
Query: For the compound CCOC(=O)c1[nH]c(C(=O)O)c(CCC(=O)OC)c1C , what AC50 is on record?
Reply: 31.6 µM (inconclusive)

====

Biological target: Protein RecA (Mycobacterium tuberculosis)
Assay: Fluorescence Cell-Free Homogeneous Dose Retest to Identify Inhibitors of RecA-Intein Splicing Activity. [Related pubchem assays (depositor defined):AID2097, AID2223, AID489010, AID492950]
Format: functional
The source made the active and inactive calls.
assay endpoint: EC50

Some molecules with recorded EC50:
molecule	EC50
CN1c2ccccc2C(C)(C)C12C=Nc1c(cc(N3CCOCC3)c3ccccc13)O2 (centres undefined)	50.5 µM (inconclusive)
Cc1ccc(N2C(=O)C(Cl)=C(N3CCOCC3)C2=O)c(C)c1	4.19 µM (active)
O=C(CNC(=O)C1COc2ccccc2O1)N/N=C\c1ccccc1Cl (centres undefined)	> 380 µM (inactive)

With those in mind, consider the next molecule.
Query: // lookup EC50 | system=Protein RecA (Mycobacterium tuberculosis) | key= CC(C)(C)c1csc(Sc2ccc([N+](=O)[O-])cn2)n1
Reply: 1.75 µM (active)

Data provenance is ChEMBL document CHEMBL1201862.
